For each record, write down the corresponding Reversal of Keratinization, Active/Total Cultures.
# Tested on: Hamster Tracheal Organ Culture
# method summary: Reversal of keratinization in hamster tracheal organ culture
# Type: cell-based
# assay setup: Conc 10^-10 M

stdin: Request: Reversal of Keratinization, Active/Total Cultures, test system Hamster Tracheal Organ Culture, entry `CC1=C(/C=C/C(C)=C/c2ccc(C(=O)O)s2)C(C)(C)CCC1`
stdout: 7/15

stdin: Request: Reversal of Keratinization, Active/Total Cultures, test system Hamster Tracheal Organ Culture, entry `CC1=C(/C=C/c2ccc3cc(C(=O)O)ccc3c2)C(C)(C)CCC1`
stdout: 3/7

stdin: Request: Reversal of Keratinization, Active/Total Cultures, test system Hamster Tracheal Organ Culture, entry `CC1=C(/C=C/C(C)=C/c2ccc(C(=O)O)o2)C(C)(C)CCC1`
stdout: 3/7

stdin: Request: Reversal of Keratinization, Active/Total Cultures, test system Hamster Tracheal Organ Culture, entry `CC1=C(/C=C/c2ccc3cc(C=O)ccc3c2)C(C)(C)CCC1`
stdout: 4/14

stdin: Request: Reversal of Keratinization, Active/Total Cultures, test system Hamster Tracheal Organ Culture, entry `CCOC(=O)c1ccc(/C=C(C)/C=C/C2=C(C)CCCC2(C)C)o1`
stdout: 2/6

Continuing:
stdin: Request: Reversal of Keratinization, Active/Total Cultures, test system Hamster Tracheal Organ Culture, entry `CCOC(=O)c1ccc(/C=C(C)/C=C/C2=C(C)CCCC2(C)C)s1`
stdout: 6/14
